Each recorded value in this set is attributed to PubChem BioAssay (NCI).

- System: NCI-H23 lung
- ASSAY_METHOD_TEXT: NCI-60 one-dose screen, 48 h
- RECORDED_CONDITIONS: 10 µM unless noted
About 83,000 compounds went through this panel and 20% of them were active in at least one assay; those are over-represented in the sample as a whole. Active and inactive are the calls of the source. The calls were made as follows: active = growth percent below 10; inactive = the rest.
Labels: YES for active, NO for inactive

>>> group_label("COc1ccc(C(=O)/C=C/c2ccc(/C=C/c3cc(OC)c(OC)c(OC)c3)cc2)cc1")
"NO"
>>> group_label("NC(=O)c1cccc(N2Cc3ccccc3OC3=C2C(=O)c2c(O)ccc(O)c2C3=O)c1")
"YES"
>>> group_label("CCC1CCc2nc3sc(C(=O)Nc4ccccc4C)c(N)c3cc2C1 (configuration not stated)")
"NO"
>>> group_label("O=C(Nc1ccc(F)c(Cl)c1)c1n[nH]c(=O)c2ccccc12")
"NO"
>>> group_label("O=C(CNC(=O)c1cccc2ccccc12)Nc1ccccc1Oc1ccccc1")
"NO"
>>> group_label("CS(=O)(=O)N(c1cc(-c2ccc3ncnc(Nc4cccc(Cl)c4)c3c2)cnc1Cl)S(C)(=O)=O")
"NO"
>>> group_label("COc1ccc(OC)c(/C=C2\\Oc3cc(OCCN4CCCC4)ccc3C2=O)c1")
"NO"
>>> group_label("CC1=CNNc2c3ncnc-3ncn21")
"NO"
>>> group_label("COc1ccc(OC)c(NC(=O)c2cc(S(=O)(=O)N3CCc4ccccc43)ccc2OC)c1")
"NO"
>>> group_label("NC(C(=O)O)C(O)c1ccc(OCc2ccccc2)c(OCc2ccccc2)c1 (configuration not stated)")
"NO"
>>> group_label("O=c1[nH]c(-c2cn(-c3ccc(Cl)cc3)nn2)nc2ccccc12")
"NO"
>>> group_label("COc1cccc(-n2cc(-c3nc(Cl)c4ccccc4n3)nn2)c1")
"NO"
>>> group_label("CCOC(=O)C1=C(CSC(=S)N(C2CCCCC2)C2CCCCC2)N(C)C(=O)NC1c1ccccc1 (configuration not stated)")
"NO"
>>> group_label("CC(Br)C(O)c1cc2c(cc1Br)OCO2 (configuration not stated)")
"NO"
>>> group_label("NC(=O)c1ccc2c(c1)OCO2")
"NO"
>>> group_label("C/C(=N\\NC(=O)CC#N)c1cc2cc(Cl)ccc2o1")
"NO"
>>> group_label("COc1cc(/C=C/C(=O)c2ccc(NC(=O)CN3CCN(c4cc5c(cc4F)c(=O)c(C(=O)O)cn5C4CC4)CC3)cc2)cc(OC)c1OC")
"YES"

---

- Test system: RPMI-8226 leukemia
- ASSAY_METHOD_TEXT: NCI-60 one-dose screen, 48 h (100 = growth as untreated, 0 = no growth, -100 = all killed)
- RECORDED_CONDITIONS: 10 µM unless noted
The panel holds about 83,000 compounds, 20% with a hit somewhere; the sample as a whole holds those more often. Activity calls are given as the source filed them. How the source made its calls: active means growth percent below 10; inactive means the rest.
EXPERIMENTAL_ENDPOINT: growth

>>> readout_value("CC(C)(C)OC(=O)N1C/C(=C\\c2cccs2)C(=O)/C(=C/c2cccs2)C1")
"55.4% (inactive)"
>>> readout_value("O=C1CCC/C=C\\C[C@H]2C=CC(=O)/C2=C/C[C@H](C/C=C\\CC(F)(F)F)O1")
"-4.51% (active)"
>>> readout_value("O=C(c1c[nH]c2ccccc12)C(Sc1nc2ccccc2c(=O)[nH]1)c1ccccc1 (configuration not stated)")
"91.1% (inactive)"
>>> readout_value("Cc1cc(C)c(NC(=O)c2sc3nc4c(cc3c2N)CN(Cc2ccccc2)CC4)c(C)c1")
"20.9% (inactive)"
>>> readout_value("CN(C)c1ccc(-c2ccc(-c3ccc(C(=N)N)cn3)o2)cc1")
"-43.4% (active)"
>>> readout_value("CCN(C(=O)c1cc2ccccc2[nH]1)[C@H]1CCC[C@@H](NCc2ccc(OC)cc2)C1")
"86% (inactive)"
>>> readout_value("C=C1C(=O)O[C@H]2[C@H]1CC/C(Cn1cc(-c3ccc(N)cc3)nn1)=C\\CC[C@@]1(C)O[C@@H]21")
"-8.22% (active)"
>>> readout_value("Nc1c(C(=O)c2ccc(F)cc2)sc2nc3c(cc12)CCCC3")
"77.6% (inactive)"
>>> readout_value("COc1ccc(/C=C/C(=O)c2ccc(NC(=O)CN3CCN(c4cc5c(cc4F)c(=O)c(C(=O)O)cn5C4CC4)CC3)cc2)cc1")
"92.6% (inactive)"
>>> readout_value("C[N+](C)(C)c1ccc(CC2c3ccccc3-c3ccccc32)cc1")
"68.6% (inactive)"
>>> readout_value("Cc1ccc(S(=O)(=O)OCC(=O)Nc2ccc(C(=O)O)c(O)c2)cc1")
"92% (inactive)"
>>> readout_value("CN(C)C/C=C/C(=O)Nc1cc2c(Nc3cccc(Cl)c3F)ncnc2cc1OCCOC(F)F")
"58.6% (inactive)"
>>> readout_value("Cc1ccc2c(c1)ncn2-c1ncnc2c1CC(C)c1ccccc1N2C (configuration not stated)")
"-9.63% (active)"
>>> readout_value("O=C(Cc1c(F)cccc1Cl)Nc1ccc(S(=O)(=O)Nc2ncccn2)cc1")
"70.4% (inactive)"
>>> readout_value("CCCC1OC(c2ccc(C(C)C)cc2)OCC1CC (configuration not stated)")
"104% (inactive)"
>>> readout_value("O=[N+]([O-])c1cccc(-c2cc(-c3cc(Br)ccc3O)[nH]n2)c1")
"-2.85% (active)"
>>> readout_value("CCn1cc(C(=O)O)c(=O)c2cc(F)c(N3CCN(S(=O)(=O)c4cccc5ccccc45)CC3)cc21")
"6.47% (active)"
